- study-target: BIRC2 BIR3 (Homo sapiens)
- Sequence (Q13490 251-372): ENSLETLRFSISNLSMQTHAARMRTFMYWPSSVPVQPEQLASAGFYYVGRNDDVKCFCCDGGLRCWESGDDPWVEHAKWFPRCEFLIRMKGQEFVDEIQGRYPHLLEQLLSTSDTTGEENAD
- method-notes: NanoBRET cellular target engagement, single domain BIRC2 BIR3
- test-conditions: Tracer KD,app ± SEM, BIRC2 BIR3, single domain, n = 4
property-label: Kd

BIRC2 BIR3 (Homo sapiens) assay, molecule CNC(C)C(=O)NC(C(=O)N1CCCC1c1nc(C(=O)c2cccc(OCCOCCOCCNC(=O)CCc3ccc4n3[B-](F)(F)[N+]3=C(c5ccc[nH]5)C=CC3=C4)c2)cs1)C1CCCCC1 (stereo not shown) [IAP Tracer] , recorded Kd = < 1000 nM

----------
- study-target: BIRC5 (Homo sapiens)
- Construct: M1 D142
- Sequence (O15392 whole entry): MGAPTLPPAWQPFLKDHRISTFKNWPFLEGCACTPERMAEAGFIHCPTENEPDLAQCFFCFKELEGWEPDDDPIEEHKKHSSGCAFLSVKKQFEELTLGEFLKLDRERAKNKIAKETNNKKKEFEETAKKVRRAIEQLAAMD
- method-notes: NanoBRET tracer titration, BIRC5
- test-conditions: full-length taken as single BIR domain construct, n = 4; read-out: Tracer KD,app ± SEM, BIRC5
pKd: −log10 of the molar value.
property-label: pKd

pKd measured on CNC(C)C(=O)NC(C(=O)N1CCCC1c1nc(C(=O)c2cccc(OCCOCCOCCNC(=O)CCc3ccc4n3[B-](F)(F)[N+]3=C(c5ccc[nH]5)C=CC3=C4)c2)cs1)C1CCCCC1 (stereo not shown) = < 5.40

----------
EC50 for assorted compounds
- study-target: BIRC4 (Homo sapiens, UniProt P98170)
- Sequence (P98170 whole entry): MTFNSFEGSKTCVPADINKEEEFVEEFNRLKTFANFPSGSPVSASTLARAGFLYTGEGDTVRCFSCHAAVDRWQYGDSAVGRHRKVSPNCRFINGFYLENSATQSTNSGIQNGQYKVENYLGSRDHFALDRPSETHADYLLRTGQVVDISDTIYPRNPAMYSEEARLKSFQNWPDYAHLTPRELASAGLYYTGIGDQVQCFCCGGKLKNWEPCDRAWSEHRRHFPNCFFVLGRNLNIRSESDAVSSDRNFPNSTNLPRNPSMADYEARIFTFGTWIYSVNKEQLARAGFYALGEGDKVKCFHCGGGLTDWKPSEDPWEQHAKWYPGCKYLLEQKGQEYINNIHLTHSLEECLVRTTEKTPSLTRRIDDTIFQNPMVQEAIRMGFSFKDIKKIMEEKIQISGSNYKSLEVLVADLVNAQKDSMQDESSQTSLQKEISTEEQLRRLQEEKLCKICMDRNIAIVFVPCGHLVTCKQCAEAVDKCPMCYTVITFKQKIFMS
- method-notes: NanoBRET cellular target engagement, full-length BIRC4
Give just the numeric value; nM need not be written.

# example entries with known answers
compound	EC50 / nM
CN[C@@H](C)C(=O)N[C@H](C(=O)N1CCC[C@H]1C(=O)Nc1sc(-c2ncco2)nc1-c1ccccc1)C1CCCCC1 [CUDC-427]	190
CN[C@@H](C)C(=O)N[C@H](C(=O)N1CCC[C@H]1C(=O)Nc1snnc1-c1ccccc1)C1CCCCC1 [GDC-0152]	15.3
CN[C@@H](C)C(=O)N[C@H](C(=O)N1CCC[C@H]1C(=O)N[C@H]1c2ccccc2C[C@H]1OCC#CC#CCO[C@@H]1Cc2ccccc2[C@@H]1NC(=O)[C@@H]1CCCN1C(=O)[C@@H](NC(=O)[C@H](C)NC)C1CCCCC1)C1CCCCC1 [AZD5582]	79.6

Now for the compound whose EC50 we want.
EC50 measured on CN[C@@H](C)C(=O)N[C@H]1CN(C(=O)CC(C)C)CC[C@H]2CC[C@@H](C(=O)NC(c3ccccc3)c3ccccc3)N2C1=O [AT406] = 28.5

----------
- study-target: BIRC4 BIR2 (Homo sapiens, UniProt P98170)
- Construct: G144 S253; expressed in transfected cells; host or cells: HEK293T
- Sequence (P98170 144-253): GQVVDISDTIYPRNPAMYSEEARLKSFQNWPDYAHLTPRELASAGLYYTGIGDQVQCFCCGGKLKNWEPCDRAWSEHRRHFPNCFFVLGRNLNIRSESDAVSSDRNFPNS
- method-notes: NanoBRET tracer titration, BIRC4 BIR2
- Format: cell-based
- test-conditions: single domain, n = 4; read-out: Tracer KD,app ± SEM, BIRC4 BIR2
property-label: Kd

BIRC4 BIR2 (Homo sapiens, UniProt P98170) assay, molecule CNC(C)C(=O)NC(C(=O)N1CCCC1c1nc(C(=O)c2cccc(OCCOCCOCCNC(=O)CCc3ccc4n3[B-](F)(F)[N+]3=C(c5ccc[nH]5)C=CC3=C4)c2)cs1)C1CCCCC1 (stereo not shown) , recorded Kd = > 4 µM

----------
- study-target: BIRC8 (Homo sapiens)
- Sequence (Q96P09 whole entry): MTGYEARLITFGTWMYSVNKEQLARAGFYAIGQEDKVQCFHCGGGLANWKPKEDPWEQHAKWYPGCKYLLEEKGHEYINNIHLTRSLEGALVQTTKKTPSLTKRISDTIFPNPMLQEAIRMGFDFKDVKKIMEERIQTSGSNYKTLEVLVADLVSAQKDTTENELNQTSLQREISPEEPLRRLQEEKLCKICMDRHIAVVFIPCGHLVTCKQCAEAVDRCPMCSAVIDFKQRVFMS
- method-notes: NanoBRET cellular target engagement, full-length BIRC8
property-label: Kd
Write down the value, and be sure its unit follows.

Kd measured on CNC(C)C(=O)NC(C(=O)N1CCCC1c1nc(C(=O)c2cccc(OCCOCCOCCNC(=O)CCc3ccc4n3[B-](F)(F)[N+]3=C(c5ccc[nH]5)C=CC3=C4)c2)cs1)C1CCCCC1 (stereo not shown) [IAP Tracer] = 1.06 µM

----------
- study-target: BIRC2-BIR3 domain (Homo sapiens)
- method-notes: Isothermal titration calorimetry (ITC)
- Type: binding
- Set-up: BIRC2-BIR3 domain (260–352) was expressed; His6 (N, cleaved yes); GST (N, cleaved yes); made in house; host or cells: E. coli
- test-conditions: 25°C; duplicates, mean ± SD; read-out: K D Measured in ITC
Starred links: 1 amine or outer side, 2 acyl side, 3 side chain; linkers in the order of their positions; H or OH if unused. Positions of bridges follow the written chain, without caps; N, C: chain ends. Non-standard residues stand in square brackets, D forms with d. Residues, ends and D or L forms follow the SMILES beside them. Chains are numbered I, II in the order given. Hexamethylenediamine = C(CCCN[*:2])CCN[*:1]; Dip = N[C@H](C(=O)O)C(c1ccccc1)c1ccccc1; Chg = N[C@H](C(=O)O)C1CCCCC1; NMeA = CN[C@@H](C)C(=O)O
Note to self: use yes (1) only for Kd readings below 40 nM; a reading exactly at 40 nM still gets no (0).

Known results for compounds:
compound	group
CN[C@@H](C)C(=O)N[C@H](C(=O)N1CCC[C@H]1C(=O)N[C@H](C(=O)NCCCCCCNC(=O)[C@@H](NC(=O)[C@@H]1CCCN1C(=O)[C@@H](NC(=O)[C@H](C)NC)C1CCCCC1)C(c1ccccc1)c1ccccc1)C(c1ccccc1)c1ccccc1)C1CCCCC1 [BV-6] (I: H-[NMeA][Chg]P[Dip] / II: H-[NMeA][Chg]P[Dip]; linker I:C-II:C via Hexamethylenediamine)	yes (1)
CN[C@@H](C)C(=O)N[C@H]1CCCC[C@H]2CC[C@@H](C(=O)N[C@@H](c3ccccc3)c3cn(CCCCc4ccc(CCCCn5cc([C@@H](NC(=O)[C@@H]6CC[C@@H]7CCCC[C@H](NC(=O)[C@H](C)NC)C(=O)N76)c6ccccc6)nn5)cc4)nn3)N2C1=O	no (0)
CN[C@@H](C)C(=O)N[C@H](C(=O)N1CCC[C@H]1C(=O)Nc1sc(-c2ncco2)nc1-c1ccccc1)C1CCCCC1	no (0)

# next compound below
Given `CN[C@@H](C)C(=O)N[C@H](C(=O)N1CCC[C@H]1C(=O)N[C@@H]1CCCc2ccccc21)C1CCCCC1` , is recorded Kd strictly lower than 40 nM?
yes (1)

----------
- study-target: BIRC2-BIR3 domain (Homo sapiens, UniProt Q13490)
- Sequence (Q13490 260-352): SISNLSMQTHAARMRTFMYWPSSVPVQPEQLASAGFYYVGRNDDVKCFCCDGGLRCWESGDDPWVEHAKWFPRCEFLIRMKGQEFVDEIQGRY
- method-notes: Differential scanning fluorimetry (DSF)
- test-conditions: technical replicate, third column
Starred links: 1 amine or outer side, 2 acyl side, 3 side chain; linkers in the order of their positions; H or OH if unused. Positions of bridges follow the written chain, without caps; N, C: chain ends. Non-standard residues stand in square brackets, D forms with d. Residues, ends and D or L forms follow the SMILES beside them. Chains are numbered I, II in the order given. Hexamethylenediamine = C(CCCN[*:2])CCN[*:1]; Dip = N[C@H](C(=O)O)C(c1ccccc1)c1ccccc1; Chg = N[C@H](C(=O)O)C1CCCCC1; NMeA = CN[C@@H](C)C(=O)O
ΔTm [°C] (Supplementary Table S1) for assorted molecules
Write down the value, and be sure its unit follows.

# example entries with known answers
molecule	study-target	reported-value
Oc1c(CN2CCCC2)cc(COCc2ccccc2)c2cccnc12	BIRC2-BIR3 domain (Homo sapiens, UniProt Q13490)	0.2 °C
CN[C@@H](C)C(=O)N[C@H](C(=O)N1CCC[C@H]1C(=O)N[C@H]1c2ccccc2C[C@H]1OCC#CC#CCO[C@@H]1Cc2ccccc2[C@@H]1NC(=O)[C@@H]1CCCN1C(=O)[C@@H](NC(=O)[C@H](C)NC)C1CCCCC1)C1CCCCC1	BIRC2-BIR3 domain (Homo sapiens, UniProt Q13490)	17.9 °C
CN[C@@H](C)C(=O)N[C@H]1CCCC[C@H]2CC[C@@H](C(=O)N[C@@H](c3ccccc3)c3cn(CCCCc4ccc(CCCCn5cc([C@@H](NC(=O)[C@@H]6CC[C@@H]7CCCC[C@H](NC(=O)[C@H](C)NC)C(=O)N76)c6ccccc6)nn5)cc4)nn3)N2C1=O	BIRC2-BIR3 domain (Homo sapiens, UniProt Q13490)	13.1 °C
CN[C@@H](C)C(=O)N[C@H](C(=O)N1CCC[C@H]1C(=O)N[C@H](C(=O)NCCCCCCNC(=O)[C@@H](NC(=O)[C@@H]1CCCN1C(=O)[C@@H](NC(=O)[C@H](C)NC)C1CCCCC1)C(c1ccccc1)c1ccccc1)C(c1ccccc1)c1ccccc1)C1CCCCC1 [BV-6] (I: H-[NMeA][Chg]P[Dip] / II: H-[NMeA][Chg]P[Dip]; linker I:C-II:C via Hexamethylenediamine)	BIRC2-BIR3 domain (Homo sapiens, UniProt Q13490)	9.1 °C

Now for the molecule whose ΔTm [°C] (Supplementary Table S1) we want.
ΔTm [°C] (Supplementary Table S1) measured on `CN[C@@H](C)C(=O)N[C@H]1CN(C(=O)CC(C)C)CC[C@H]2CC[C@@H](C(=O)NC(c3ccccc3)c3ccccc3)N2C1=O` = 11.4 °C

----------
- study-target: BIRC1 BIR[2] (Homo sapiens, UniProt Q13075)
- Sequence (Q13075 139-251): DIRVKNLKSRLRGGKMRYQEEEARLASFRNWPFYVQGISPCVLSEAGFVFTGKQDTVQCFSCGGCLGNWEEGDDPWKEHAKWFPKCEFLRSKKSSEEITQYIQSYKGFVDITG
- method-notes: NanoBRET cellular target engagement, single domain BIRC1 BIR[2]
property-label: EC50 (nM)
Give just the numeric value; nM need not be written.

# example entries with known answers
CN[C@@H](C)C(=O)N[C@H](C(=O)N1CCC[C@H]1c1nc(C(=O)c2ccc(F)cc2)cs1)C1CCCCC1 1490
CN[C@@H](C)C(=O)N[C@H](C(=O)N1CCC[C@H]1C(=O)N[C@@H]1CCCc2ccccc21)C1CCCCC1 1230

Now for the compound whose EC50 we want.
BIRC1 BIR[2] (Homo sapiens, UniProt Q13075) assay, compound `CN[C@@H](C)C(=O)N[C@H](C(=O)N1CCC[C@H]1C(=O)N[C@H]1c2ccccc2C[C@H]1OCC#CC#CCO[C@@H]1Cc2ccccc2[C@@H]1NC(=O)[C@@H]1CCCN1C(=O)[C@@H](NC(=O)[C@H](C)NC)C1CCCCC1)C1CCCCC1` , recorded EC50 = 776
